Where do these numbers come from? They come from patent US20190300590A1.

Target: T1, IL23R_huFC (human, UniProt Q5VWK5 24-353)
T1 sequence (looked up): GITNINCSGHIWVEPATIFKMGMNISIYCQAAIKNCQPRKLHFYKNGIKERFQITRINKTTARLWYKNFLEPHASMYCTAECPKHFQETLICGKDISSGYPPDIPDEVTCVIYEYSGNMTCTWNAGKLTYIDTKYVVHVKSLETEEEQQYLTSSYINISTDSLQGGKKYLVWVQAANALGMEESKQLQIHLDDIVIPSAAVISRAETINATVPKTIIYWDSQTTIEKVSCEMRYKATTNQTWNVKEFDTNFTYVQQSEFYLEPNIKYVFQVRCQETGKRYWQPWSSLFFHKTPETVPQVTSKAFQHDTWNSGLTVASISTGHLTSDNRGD
Test: human ELISA vs IL-23
Assay Readout: IC50

[
  {
    "Binder": "CQTWQXYWLENG (as bracketed in name; cyclized via Cys and Pen) [Ac-CQTWQ-[Pen]-YW-[α-MeLeu]-ENG-NH2]",
    "Value Observed": "100 to 1000 nM"
  }
]
